system: A549/ATCC NSCLC; assay: NCI-60 one-dose screen, 48 h; conditions: 10 µM unless noted
This is part of a sample that, as a whole, favours compounds with a hit. Of some 83,000 tested, about 20% had one in any assay. Active and inactive are the calls of the source. How the source made its calls: active means growth percent below 10; inactive means the rest.
Classes to choose from: label 1 for active, label 0 for inactive

Cn1cnc([N+](=O)[O-])c1S(=O)(=O)Oc1ccccc1 :: label 0
CCn1c(Cc2ccccc2Nc2c(Cl)cccc2Cl)nnc1SCC(=O)Nc1cccc(OC)c1 :: label 0
C=C(C)[C@@H]1CC[C@]2(C(=O)O)CC[C@]3(C)[C@H](CC[C@@H]4[C@@]5(C)C[C@@H](CC#Cc6ccc(C(C)=O)s6)[C@H](O)C(C)(C)[C@@H]5CC[C@]43C)[C@@H]12 :: label 1

Q: Could you check what this test reported for C=C1C(=O)O[C@H]2[C@H]1CC/C(COC(=O)NCc1[nH]nc3ccccc13)=C\CC[C@@]1(C)O[C@@H]21 ?
A: label 0

Q: What call does the record list for COc1cc2ncnc(Nc3ccc(S(=O)(=O)Nc4cc(C)on4)cc3)c2cc1OCCCN1CCN(c2ccc([N+](=O)[O-])cc2)CC1 ?
A: label 0

Q: // param item: Nc1ncnc2c1N=C(c1ccc3c(c1)OCO3)CC(c1ccc(Cl)cc1)N2 (stereo not drawn) ; yields the recorded call
A: label 0

Q: Outcome? Nc1c(C(=O)Nc2ccccc2)sc2nc3c(cc12)C(=O)CCC3
A: label 0

Q: Lab log entry: CCCCCCCCN=C(NCCCCCCCC)SCc1cccc2ccccc12 — outcome as called in the assay?
A: label 1

###

tested on: EKVX NSCLC; test: NCI-60 one-dose screen, 48 h (100 = growth as untreated, 0 = no growth, -100 = all killed); conditions: 10 µM unless noted
The panel holds about 83,000 compounds, 20% with a hit somewhere; the sample as a whole holds those more often.
Assign class by growth: not lower than 60% means 1; lower than 60% means 0.

CN(C)CCNC(=O)n1cc(-c2ccncc2)c(-c2cc(O)cc(Cl)c2)n1 :: 1
O/N=C1\c2ccccc2-c2ccc(Br)cc21 :: 1
COc1cc(C2CC(c3ccc(Cl)cc3)=NN2C(C)=O)ccc1Oc1nc2c(c(=O)n(C)c(=O)n2C)n1C (stereo unspecified) :: 1
c1csc(-c2cnc3nonc3n2)c1 :: 1
Cn1cnc([N+](=O)[O-])c1S(=O)(=O)Oc1ccccc1 :: 1
CCC(=O)OCc1ccc(OC)cc1 :: 1

Turning now to a further record.
Q: In plain terms: is recorded growth at least 60% for O=C(N/N=C/c1ccccc1O)c1ccncc1 ?
A: 0

###

tested on: SK-MEL-5 melanoma; assay: NCI-60 one-dose screen, 48 h; settings: 10 µM unless noted
Compounds without any hit were thinned out: in the full panel of roughly 83,000, 20% have a hit. Calls of active or inactive are those of the source. How the source made its calls: active means growth percent below 10; inactive means the rest.
Entry note: the call must match one of active, inactive

CC(C)(C)c1ccc(C(=O)Nc2sc3cc(O)ccc3c2C(N)=O)cc1 :: inactive
CCOC(=O)CCN(CCC(=O)OCC)c1ccccc1 :: inactive
COc1ccccc1/C=C/C(=O)CCC(=O)O :: inactive
O=C1NN(C(=O)c2ccccc2)C(c2ccc(Cl)c(Cl)c2)=C/C1=C\c1ccccc1[N+](=O)[O-] :: active
Cc1ccc2c(C)c3c(ccc4ccccc43)c[n+]2c1 :: active

Q: What did this assay record as the result for CN1CCC2(CC1)N=C(SCC(=O)Nc1cnc3ccccc3c1)C(c1ccc(Br)cc1)=N2 ?
A: active

###

Let's look at some molecules and their measured growth.
system: IGROV1 ovarian; assay: NCI-60 one-dose screen, 48 h (100 = growth as untreated, 0 = no growth, -100 = all killed); details: 10 µM unless noted
About 83,000 compounds went through this panel and 20% of them were active in at least one assay; those are over-represented in the sample as a whole.
Please give a number only; it is taken to be in %.

Example results:
Cc1ccc(C)c2c1SC1=NNC(Oc3ccc(Cl)cc3)=C(C#N)C(=N)N12 :: 87.8
CCN1C(=O)/C(=C/N2N=C(c3ccc(Cl)cc3)CC2c2ccc(OC)cc2)SC1=S (stereo unspecified) :: 84.3
NC(CCC(=O)NC(CS)C(=O)NCC(=O)O)C(=O)O (stereo unspecified) :: 98.1
Cn1cnc([N+](=O)[O-])c1S(=O)(=O)Oc1ccccc1 :: 85.7
O=C1Nc2ccccc2/C1=C\c1nc(C2CCN(S(=O)(=O)c3ccc(F)cc3)CC2)n2ccccc12 :: 57

GET /values?item= CCOC(=O)Cc1cc(Br)c(OCc2ccccc2)c(Br)c1 &system= IGROV1 ovarian returns growth: 85.6

###

Tested on: HOP-92 NSCLC
Assay: NCI-60 one-dose screen, 48 h
Details: 10 µM unless noted
Description: Growth inhibition of the HOP-92 human Non-Small Cell Lung tumor cell line is measured as a screen for anti-cancer activity. Cells are grown in 96 well plates and exposed to the test compound for 48 hours. Compounds are tested at a single concentration, which is 10^-5 M for most compounds. The reported endpoint is percent growth (GI% or GIPRCNT), where numbers from 0 - 100% represent growth inhibition, and numbers from -100% - 0 represent cell death. […]
Compounds without any hit were thinned out: in the full panel of roughly 83,000, 20% have a hit. Activity calls are given as the source filed them. How the source made its calls: active means growth percent below 10; inactive means the rest.
Can you answer with just one of these options? active, inactive

Consider the worked cases shown below.
NNc1ccc(S(N)(=O)=O)cc1 :: inactive
N=C(N)c1ccc(-c2ccc(-c3ccco3)o2)cc1F :: active
COc1ccc(-c2ccc(-c3ccc(C(=N)N)s3)s2)cc1 :: active
Cc1cc(Nc2c3ccccc3nc3ccccc23)ccc1NS(C)(=O)=O :: active
COc1cc(OC)c(C(=O)/C=C/c2cccc(OC(C)=O)c2)cc1CC=C(C)C :: inactive
COc1cc(OC)cc(-c2ccc(-c3ccc(C(=N)N)s3)s2)c1 :: active
Cc1nn(-c2ccccc2)c2nc3c(nc12)C1=NCCN1C(c1ccc(Cl)cc1)N3 (stereo not given) :: inactive
Cc1cccc2nc3ccccc3c(Nc3ccc(NS(C)(=O)=O)cc3)c12 :: active
CC(C)(C)c1cc(C[P+](c2ccccc2)(c2ccccc2)c2ccccc2)cc(C(C)(C)C)c1O :: active
O=C(CC(=O)c1ccccc1F)Nc1ccc([N+](=O)[O-])cc1 :: inactive

Q: Record lookup: outcome of this test for O=C(Nc1cccc(-n2ccc3c(NC(=O)c4ccccc4)nccc32)c1)c1ccc(Cl)c(Cl)c1 ?
A: active

Q: Assay outcome for N#Cc1ccc(-c2ccc(-c3cccs3)o2)cc1F : what was it?
A: inactive

Q: Hello, I am checking results. What call was entered for CCCCCc1c(C)[nH]c(/C=C2\N=C(c3ccc[nH]3)C=C2Oc2ccc(OC)cc2)c1C ?
A: active

Q: Tell me the assay call for N=C(N)c1ccc(-c2ccc(-c3cccs3)s2)cc1F please.
A: active

Q: For this compound, state the assay outcome: COc1ccc(/C=C/c2nc(NCCCN(C)C)c3ccccc3n2)cc1
A: active

###

system: UO-31 renal; experiment: NCI-60 one-dose screen, 48 h; settings: 10 µM unless noted
About 83,000 compounds went through this panel and 20% of them were active in at least one assay; those are over-represented in the sample as a whole. Calls of active or inactive are those of the source. How the source made its calls: active means growth percent below 10; inactive means the rest.
Log the outcome using a class from T = active, F = inactive

Known results for compounds:
O=C(Nc1cccc(-n2ccc3c(NC(=O)c4ccccc4)nccc32)c1)c1ccc(Cl)c(Cl)c1 :: T
COc1cc(CN(CCC(O)N2CCCC2=O)Cc2ccc3c(c2)OCO3)cc(OC)c1OC (centres undefined) :: F
CC1OC(n2c3ccccc3c3c4c(c5c6ccccc6[nH]c5c32)C(=O)N(CCN[C@H]2CCC[C@@H]2N)C4=O)CC(O)C1O (some centres undefined) :: F

# evaluate next
Q: Record lookup: outcome of this test for COc1cc(C2CC(c3ccc(Cl)cc3)=NN2C=O)ccc1Oc1ccnc2cc(Cl)ccc12 (centres undefined) ?
A: F

###

tested on: RXF 393 renal; test: NCI-60 one-dose screen, 48 h (100 = growth as untreated, 0 = no growth, -100 = all killed); details: 10 µM unless noted
The panel holds about 83,000 compounds, 20% with a hit somewhere; the sample as a whole holds those more often. Active and inactive are the calls of the source. The calls were made as follows: active = growth percent below 10; inactive = the rest.
Below, each entry is listed with its recorded growth.

Study these solved cases before continuing.
COC(=O)[C@@H](Cc1c[nH]c2ccccc12)NC(=O)/C=C/c1ccccc1 :: -25.6% (active)
CC(=O)c1ccc(Br)c([N+](=O)[O-])c1 :: 113% (inactive)
CCCCCCCCCCCCCCCC1=NCCN1 :: 60.6% (inactive)
CCCCCCCCOC(=O)C(C)OC(=O)OCCOCCOC(=O)OC(C)C(=O)OCCCCCCCC (stereo unspecified) :: 110% (inactive)
COC(=O)CSc1ccc(Cl)cc1 :: 136% (inactive)

# next molecule below
Short answer for CCN(C(=O)CCl)C(C)(C)C(SSSC(c1ccc(Cl)cc1)C(C)(C)N(CC)C(=O)CCl)c1ccc(Cl)cc1 (stereo unspecified) : growth was 48.6% (inactive)
